- assay_remarks: protein stability index of a GFP-peptide fusion (yeast GPS) (PSI 1-4); higher = more stable; sorted into four equal gates, so the index is relative within each strain
- experimental_context: san1∆
Field: protein stability index. Provide a value for each of the sequences that follow.
Form rule: numeric answer, no unit written next to it.

Query block: Item under review: DIWQSRDQGNDSLNDDL [YIL149C/MLP2] . Reported protein stability index?
Result block: 3.65

Query block: Quick one: DIVQYHLELYTSQYGTP [PRE3]
Result block: 1.77

Query block: Quick one: ISIKDNKLVMKSKFNKS [GAL11]
Result block: 3.2

Query block: Quick one: TPSTEESRAQNVFGQDN [SWI3]
Result block: 3.35

Query block: Quick one: EQSELLKAQITSLKCLV [SNF2]
Result block: 2.16

Query block: Quick one: KVEYKIVHDDPASDDIL [ITC1]
Result block: 3.05

Query block: Quick one: QRETMKERKLRENIAML [SMC1]
Result block: 3.04

Query block: Quick one: VGQAGRPKKITGWITQS [RPN1]
Result block: 2.21

Query block: Quick one: LLSFVLGVVFGRGGSGW [YML031W/NDC1]
Result block: 2.31

Query block: Quick one: KIHQQLLFKARLQQQQA [GAL11]
Result block: 1.25

Query block: Quick one: LCLEKLMCLSSKYCEKS [YCS4]
Result block: 2.27

Query block: Quick one: IGNLITRQFEGRSNEIV [PRP8]
Result block: 3

Query block: Quick one: YPMMHQVRNQVFMLDTK [RGR1]
Result block: 2.3
